Experiment: physchem
Settings: octanol/water
Description: Octanol-water partition coefficient, log P of the compound
OBSERVED_PROPERTY: logP
Write the number on its own, no unit after it.

Here is how some compounds turned out for logP.
>  <QUERY_SMILES>
CCc1ccc(NS(=O)(=O)c2cccc3c(NC(=O)/C=C/c4ccc(OC(C)=O)c(OC(C)=O)c4)cccc23)cc1

>  <ENDPOINT_RESULT>
4.53

$$$$
>  <QUERY_SMILES>
CCc1ccccc1NS(=O)(=O)c1cccc2c(NC(=O)/C=C/c3ccc(OC(C)=O)c(OC(C)=O)c3)cccc12

>  <ENDPOINT_RESULT>
4.53

$$$$
>  <QUERY_SMILES>
CC(=O)Oc1ccc(/C=C/C(=O)Nc2cccc3c(S(=O)(=O)Nc4ccc(Br)cc4)cccc23)cc1OC(C)=O

>  <ENDPOINT_RESULT>
4.44

$$$$

Would you kindly look at the next entry?
Exercise: Param item = O=C(/C=C/c1ccc(O)c(O)c1)Nc1cccc2c(S(=O)(=O)Nc3ccc(Br)cc3)cccc12 ; retrieve measured logP.
Key: 4.14

The reported numbers originate from ChEMBL document CHEMBL3046696.
